Target: FLT3 (Homo sapiens, UniProt P36888)
Sequence (P36888 27-993): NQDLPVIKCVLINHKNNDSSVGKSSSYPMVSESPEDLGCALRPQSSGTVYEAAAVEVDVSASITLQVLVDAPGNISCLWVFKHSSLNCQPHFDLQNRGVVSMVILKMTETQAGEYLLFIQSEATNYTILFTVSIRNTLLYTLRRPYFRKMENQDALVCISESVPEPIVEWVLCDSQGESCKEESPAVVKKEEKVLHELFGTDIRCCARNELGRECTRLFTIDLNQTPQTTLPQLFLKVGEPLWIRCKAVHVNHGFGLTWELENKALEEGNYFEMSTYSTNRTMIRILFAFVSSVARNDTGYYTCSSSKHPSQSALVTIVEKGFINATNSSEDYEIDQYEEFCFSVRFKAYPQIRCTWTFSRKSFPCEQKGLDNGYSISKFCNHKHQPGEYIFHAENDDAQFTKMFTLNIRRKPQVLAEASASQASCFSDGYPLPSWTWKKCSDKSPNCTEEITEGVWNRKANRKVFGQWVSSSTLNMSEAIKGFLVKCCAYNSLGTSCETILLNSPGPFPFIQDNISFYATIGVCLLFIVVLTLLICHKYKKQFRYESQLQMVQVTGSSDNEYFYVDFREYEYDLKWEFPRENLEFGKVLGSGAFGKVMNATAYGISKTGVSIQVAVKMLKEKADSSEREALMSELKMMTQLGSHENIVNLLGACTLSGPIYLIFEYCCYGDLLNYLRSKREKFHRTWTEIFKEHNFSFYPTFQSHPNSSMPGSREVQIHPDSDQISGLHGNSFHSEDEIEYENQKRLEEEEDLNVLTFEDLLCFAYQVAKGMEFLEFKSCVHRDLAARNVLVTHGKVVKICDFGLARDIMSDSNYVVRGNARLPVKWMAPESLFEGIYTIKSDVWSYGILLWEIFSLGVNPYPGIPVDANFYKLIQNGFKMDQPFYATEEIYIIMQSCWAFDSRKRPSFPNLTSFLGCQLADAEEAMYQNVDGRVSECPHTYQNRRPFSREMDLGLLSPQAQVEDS
Assay: Reaction Biology NanoBRET target engagement assay in HEK-293 cells, FLT3
Format: cell-based
Details: live HEK-293 cells transfected with Kinase-NanoLuc fusion, 1 hour
Labelling field: enter condition met if recorded IC50 is less than 80 nM. Enter condition not met if it equals or exceeds that cut-off.

Consider the worked cases shown below.
>  <compound>
CC(C)(O)c1cn2c(-c3nc(N[C@H]4CNCC[C@@H]4F)ncc3F)cnc2cn1 [Compound 100a]

>  <class.name>
condition not met

$$$$
>  <compound>
COc1cc2ncc(-c3nc(N[C@H]4CNC[C@@H]4F)ncc3F)n2nc1N1CCCS1(=O)=O [Compound 111a]

>  <class.name>
condition met

$$$$
>  <compound>
COc1cc2ncc(-c3nc(N[C@H]4CNCC[C@@H]4F)ncc3F)n2nc1C1CC(F)(F)C1 [Compound 49a]

>  <class.name>
condition met

$$$$
>  <compound>
CC(O)(c1ccc2ncc(-c3ccnc(N[C@@H]4CCCNC4)n3)n2c1)C(F)(F)F (single isomer, unassigned) [Compound 22a]

>  <class.name>
condition met

$$$$
>  <compound>
FC(F)COc1cc2ncc(-c3ccnc(N[C@H]4CNCC[C@@H]4F)n3)n2nc1C1CC1

>  <class.name>
condition met

$$$$
>  <compound>
COc1cc2ncc(-c3nc(N[C@H]4CNCC[C@@H]4F)ncc3F)n2nc1C1COC1 [Compound 92a]

>  <class.name>
condition met

$$$$
>  <compound>
COc1cc2ncc(-c3ccnc(N[C@H]4CNCC[C@@H]4F)n3)n2nc1C1CCC1 [Compound 79a]

>  <class.name>
condition met

$$$$
>  <compound>
CC(C)(O)c1ccc2ncc(-c3nc(N[C@H]4CNCC[C@@H]4F)ncc3F)n2c1 [Compound 46a]

>  <class.name>
condition not met

$$$$

Req: Consider COc1cc2ncc(-c3nc(N[C@H]4CNCC[C@@H]4F)ncc3F)n2nc1C1CC1 . Does its IC50 lie strictly below 80 nM?
Resp: condition met

Req: Consider CC(C)(O)c1ccc2ncc(-c3nc(N[C@@H]4CCCNC4)ncc3F)n2c1 [Compound 48a] . Does its IC50 lie strictly below 80 nM?
Resp: condition not met

Req: Consider F[C@H]1CCNC[C@@H]1Nc1nccc(-c2cnc3cc(OC4CC4)c(C4CC4)nn23)n1 [Compound 12a] . Does its IC50 lie strictly below 80 nM?
Resp: condition met
